Recorded measurements of pEC50, one per entry
- SYSTEM UNDER TEST: PI3-kinase p110-alpha/p85-alpha (Homo sapiens)
- Sequence (P27986 whole entry): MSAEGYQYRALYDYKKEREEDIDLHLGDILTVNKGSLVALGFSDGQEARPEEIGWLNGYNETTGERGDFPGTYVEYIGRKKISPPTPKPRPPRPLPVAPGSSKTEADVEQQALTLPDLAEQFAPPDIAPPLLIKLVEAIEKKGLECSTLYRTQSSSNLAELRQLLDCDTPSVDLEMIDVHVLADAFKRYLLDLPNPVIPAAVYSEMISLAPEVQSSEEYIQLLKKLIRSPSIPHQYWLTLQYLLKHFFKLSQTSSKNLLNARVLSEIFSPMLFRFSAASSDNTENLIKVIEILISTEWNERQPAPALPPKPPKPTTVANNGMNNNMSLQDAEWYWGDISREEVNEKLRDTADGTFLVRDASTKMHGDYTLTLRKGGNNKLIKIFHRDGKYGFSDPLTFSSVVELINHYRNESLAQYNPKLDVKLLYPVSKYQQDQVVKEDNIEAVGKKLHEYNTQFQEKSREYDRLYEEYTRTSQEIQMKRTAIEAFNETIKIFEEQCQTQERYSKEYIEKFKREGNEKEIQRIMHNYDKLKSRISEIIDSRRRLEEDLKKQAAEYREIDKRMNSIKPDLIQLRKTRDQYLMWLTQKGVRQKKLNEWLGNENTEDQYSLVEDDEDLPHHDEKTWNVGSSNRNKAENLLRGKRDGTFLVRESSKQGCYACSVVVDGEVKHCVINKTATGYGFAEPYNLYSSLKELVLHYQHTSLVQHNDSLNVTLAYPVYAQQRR
- Sequence (P42336 whole entry): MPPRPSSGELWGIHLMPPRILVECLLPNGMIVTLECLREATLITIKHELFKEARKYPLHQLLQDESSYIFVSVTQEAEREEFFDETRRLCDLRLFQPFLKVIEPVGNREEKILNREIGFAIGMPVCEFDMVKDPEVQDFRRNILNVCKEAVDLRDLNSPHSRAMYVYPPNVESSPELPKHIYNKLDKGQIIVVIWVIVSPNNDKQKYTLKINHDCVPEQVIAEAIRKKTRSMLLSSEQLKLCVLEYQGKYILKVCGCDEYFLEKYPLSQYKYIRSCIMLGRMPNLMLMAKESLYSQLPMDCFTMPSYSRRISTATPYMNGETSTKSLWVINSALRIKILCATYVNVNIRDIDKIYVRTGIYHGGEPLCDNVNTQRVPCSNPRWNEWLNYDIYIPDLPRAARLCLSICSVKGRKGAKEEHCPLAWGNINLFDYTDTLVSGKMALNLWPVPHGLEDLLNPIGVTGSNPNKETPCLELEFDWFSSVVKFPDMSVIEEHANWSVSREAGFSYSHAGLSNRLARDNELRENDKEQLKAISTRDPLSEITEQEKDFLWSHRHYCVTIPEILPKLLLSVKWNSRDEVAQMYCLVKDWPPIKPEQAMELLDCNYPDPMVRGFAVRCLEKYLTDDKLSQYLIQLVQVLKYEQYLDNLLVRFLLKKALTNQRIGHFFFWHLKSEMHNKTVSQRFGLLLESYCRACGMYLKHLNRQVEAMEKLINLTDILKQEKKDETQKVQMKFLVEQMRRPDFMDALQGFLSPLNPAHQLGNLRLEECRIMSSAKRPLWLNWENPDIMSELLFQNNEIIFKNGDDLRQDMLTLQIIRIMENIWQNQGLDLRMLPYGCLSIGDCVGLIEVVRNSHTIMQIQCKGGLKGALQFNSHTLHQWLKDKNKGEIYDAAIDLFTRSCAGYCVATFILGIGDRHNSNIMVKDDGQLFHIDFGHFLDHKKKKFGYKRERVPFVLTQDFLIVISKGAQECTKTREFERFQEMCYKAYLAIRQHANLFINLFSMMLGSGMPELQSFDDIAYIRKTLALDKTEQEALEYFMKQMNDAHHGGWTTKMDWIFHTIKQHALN
- METHOD: Inhibition of PI3K p110alpha/p85alpha-mediated AKT1 phosphorylation at Ser473 in human U2OS cells
pEC50: −log10 of the molar value.

MOLECULE: NC(=O)c1cn2cc(-c3cccc4[nH]ncc34)nc(N3CCOCC3)c2n1
pEC50: 6.86
//
MOLECULE: O=C(NCCN1CCOCC1)c1cn2cc(-c3cccc4[nH]ncc34)nc(N3CCOCC3)c2n1
pEC50: 6.34
//
MOLECULE: CCNC(=O)c1cn2cc(-c3cccc4[nH]ncc34)nc(N3CCOCC3)c2n1
pEC50: 6.15
//
MOLECULE: CS(=O)(=O)N1CCN(Cc2cn3c(Cl)c(-c4cccc5[nH]ncc45)nc(N4CCOCC4)c3n2)CC1
pEC50: 6.31
//
MOLECULE: COCCNC(=O)c1cn2cc(-c3cccc4[nH]ncc34)nc(N3CCOCC3)c2n1
pEC50: 6.70
//
MOLECULE: COCCCNC(=O)c1cn2cc(-c3cccc4[nH]ncc34)nc(N3CCOCC3)c2n1
pEC50: 6.94

* * *

- SYSTEM UNDER TEST: PI3-kinase p110-delta/p85-alpha (Homo sapiens, UniProt O00329)
- Sequence (P27986 whole entry): as the sequence (P27986 whole entry) above
- Sequence (O00329 whole entry): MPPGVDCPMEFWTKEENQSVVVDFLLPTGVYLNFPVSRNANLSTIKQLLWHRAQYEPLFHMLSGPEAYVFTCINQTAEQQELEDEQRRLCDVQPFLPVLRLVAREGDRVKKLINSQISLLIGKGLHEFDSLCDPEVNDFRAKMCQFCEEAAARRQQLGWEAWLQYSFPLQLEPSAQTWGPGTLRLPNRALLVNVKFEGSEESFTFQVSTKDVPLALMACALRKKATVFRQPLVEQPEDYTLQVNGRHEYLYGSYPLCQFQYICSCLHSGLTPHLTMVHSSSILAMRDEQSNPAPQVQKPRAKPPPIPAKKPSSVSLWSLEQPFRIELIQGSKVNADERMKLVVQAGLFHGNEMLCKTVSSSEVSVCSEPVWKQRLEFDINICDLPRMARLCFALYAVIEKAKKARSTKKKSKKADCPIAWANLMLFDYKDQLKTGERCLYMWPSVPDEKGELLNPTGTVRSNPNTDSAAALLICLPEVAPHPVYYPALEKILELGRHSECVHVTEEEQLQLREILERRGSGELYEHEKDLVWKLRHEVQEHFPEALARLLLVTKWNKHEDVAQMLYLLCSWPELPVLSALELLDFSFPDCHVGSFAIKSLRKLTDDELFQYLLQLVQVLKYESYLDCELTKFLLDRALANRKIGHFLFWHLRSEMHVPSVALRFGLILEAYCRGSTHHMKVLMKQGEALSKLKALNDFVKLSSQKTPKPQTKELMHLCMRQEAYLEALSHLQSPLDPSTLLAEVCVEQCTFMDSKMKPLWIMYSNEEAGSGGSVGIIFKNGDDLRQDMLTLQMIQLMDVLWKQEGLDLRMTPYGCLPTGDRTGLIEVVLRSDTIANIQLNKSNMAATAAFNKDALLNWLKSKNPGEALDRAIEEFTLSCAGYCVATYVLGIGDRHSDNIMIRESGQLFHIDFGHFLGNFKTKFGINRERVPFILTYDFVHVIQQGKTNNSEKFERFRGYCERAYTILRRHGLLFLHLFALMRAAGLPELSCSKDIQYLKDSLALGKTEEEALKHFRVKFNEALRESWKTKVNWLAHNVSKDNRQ
- METHOD: Inhibition of human PI3K p110delta/p85alpha
- ASSAY CONTEXT: read-out: Ki(app)
pKi: −log10 of the molar value.
OBSERVABLE: pKi

MOLECULE: CS(=O)(=O)N1CCN(Cc2cn3c(C#N)c(-c4cccc5[nH]ncc45)nc(N4CCOCC4)c3n2)CC1
SYSTEM UNDER TEST: PI3-kinase p110-delta/p85-alpha (Homo sapiens, UniProt O00329)
MEASURED NUMBER: 7.37

MOLECULE: O=C(NCCN1CCOCC1)c1cn2cc(-c3cccc4[nH]ncc34)nc(N3CCOCC3)c2n1
SYSTEM UNDER TEST: PI3-kinase p110-delta/p85-alpha (Homo sapiens, UniProt O00329)
MEASURED NUMBER: 8.19

MOLECULE: CN(C)CCCNC(=O)c1cn2cc(-c3cccc4[nH]ncc34)nc(N3CCOCC3)c2n1
SYSTEM UNDER TEST: PI3-kinase p110-delta/p85-alpha (Homo sapiens, UniProt O00329)
MEASURED NUMBER: 8.44

* * *

- SYSTEM UNDER TEST: PI3-kinase p110-alpha/p85-alpha (Homo sapiens)
- METHOD: Inhibition of human PI3K p110alpha/p85alpha
- ASSAY CONTEXT: read-out: Ki(app)
pKi: −log10 of the molar value.
OBSERVABLE: pKi

MOLECULE: O=C(NCCN1CCOCC1)c1cn2cc(-c3cccc4[nH]ncc34)nc(N3CCOCC3)c2n1
MEASURED NUMBER: 7.19
--
MOLECULE: CS(=O)(=O)N1CCN(Cc2nc3c(N4CCOCC4)nc(-c4cccc5[nH]ncc45)cn3c2Br)CC1
MEASURED NUMBER: 7.07
--
MOLECULE: CNC(=O)c1cn2cc(-c3cccc4[nH]ncc34)nc(N3CCOCC3)c2n1
MEASURED NUMBER: 6.99
